Biological target: human PAD4 (hPAD4) (Homo sapiens, UniProt Q9UM07)
Sequence (Q9UM07 whole entry): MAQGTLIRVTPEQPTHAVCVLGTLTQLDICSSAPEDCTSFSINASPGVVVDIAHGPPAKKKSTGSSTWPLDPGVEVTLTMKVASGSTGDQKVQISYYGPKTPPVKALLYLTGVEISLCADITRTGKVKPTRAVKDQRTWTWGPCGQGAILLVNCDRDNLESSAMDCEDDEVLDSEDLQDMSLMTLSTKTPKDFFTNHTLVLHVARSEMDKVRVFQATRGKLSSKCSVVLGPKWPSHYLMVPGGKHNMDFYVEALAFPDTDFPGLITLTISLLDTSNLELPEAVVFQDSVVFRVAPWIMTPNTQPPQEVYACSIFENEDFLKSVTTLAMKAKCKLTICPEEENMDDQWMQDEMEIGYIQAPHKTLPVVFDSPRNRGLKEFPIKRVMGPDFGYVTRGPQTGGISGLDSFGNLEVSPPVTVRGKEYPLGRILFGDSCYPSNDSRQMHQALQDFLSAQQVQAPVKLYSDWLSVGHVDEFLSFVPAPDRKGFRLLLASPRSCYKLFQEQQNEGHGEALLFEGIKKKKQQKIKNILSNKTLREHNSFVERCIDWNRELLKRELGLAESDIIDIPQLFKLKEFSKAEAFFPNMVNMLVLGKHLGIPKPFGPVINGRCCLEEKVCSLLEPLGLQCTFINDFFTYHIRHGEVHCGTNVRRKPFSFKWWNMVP
Assay: RFMS human PAD4 functional assay (rapid-fire mass spectrum)
Conditions: 5 nM hPAD4 enzyme, 250 μM BAEE, 50 μM Calcium; 30 min preincubation, 90 min reaction at 37° C.
measure: IC50 (nM)

(a) COc1cc(C(=O)N2CCC[C@@H](N)C2)cc2nc(-c3cc4cccnc4n3CC3CC3)n(CCNS(C)(=O)=O)c12
(b) COc1cc(C(=O)N2C[C@H](N)C[C@@H](F)C2)cc2nc(-c3cc4ccccc4n3CC3CC3)n(Cc3cnn(C)c3C)c12
Query: Just tell me: smaller IC50 value, a or b ? Answer by quoting the chosen item's label.
Reply: b

(1) COc1cc(C(=O)N2C[C@H]3CC[C@@H]2[C@@H]3N)cc2nc(-c3cc4cccnc4n3CC3CC3)n(C3CN(c4nccc(C(=O)O)n4)C3)c12
(2) COc1cc(C(=O)N2C[C@H]3CC[C@@H]2[C@@H]3N)cc2nc(-c3cc4cccnc4n3CC3CC3)n(CC3CN(C(=O)c4ccncc4)C3)c12
Query: Endpoint returns the identifier whose IC50 is numerically larger, either 1 or 2 . Answer by quoting the chosen item's label.
Reply: 1

(I) COc1cc(C(=O)N2C[C@H](N)C[C@@H](F)C2)cc2nc(-c3cc4cccnc4n3CC3CC3)n(Cc3cnn(C)c3)c12
(II) COc1cc(C(=O)N2C[C@H](N)C[C@@H](F)C2)cc2nc(-c3cc4ccccc4n3CC3CC3)n(Cc3ccon3)c12
(III) COc1ccc2cc(-c3nc4cc(C(=O)N5C[C@H]6CC[C@@H]5[C@@H]6N)cc(OC)c4n3CC3CN(C(=O)c4cnc(C#N)nc4)C3)n(CC3CC3)c2n1
(IV) COc1cc(C(=O)N2CC3CCC2[C@@H]3N)cc2nc(-c3cc4ccccc4n3CC3CC3)n(Cc3ccccc3)c12 (stereo partly drawn)
Query: Provide the items ranked by increasing IC50. Answer by listing the labels in the order asked for.
Reply: III, I, IV, II

(A) COc1cc(C(=O)N2C[C@H](N)C[C@@H](F)C2)cc2nc(-c3cc4cccnc4n3CC3CC3)n(Cc3cnn(-c4cccc(Cl)n4)c3)c12
(B) COc1cnc(N2CC(Cn3c(-c4cc5cccnc5n4CC4CC4)nc4cc(C(=O)N5C[C@H]6CC[C@@H]5[C@@H]6N)cc(OC)c43)C2)cn1
Query: Endpoint returns the identifier whose IC50 is numerically larger, either A or B . Answer by quoting the chosen item's label.
Reply: B
